# TARGET_OF_ASSAY: murine IL-21R expressed on cells (murine, UniProt Q9JHX3 20-529)
# Sequence (Q9JHX3 20-529 limits assumed): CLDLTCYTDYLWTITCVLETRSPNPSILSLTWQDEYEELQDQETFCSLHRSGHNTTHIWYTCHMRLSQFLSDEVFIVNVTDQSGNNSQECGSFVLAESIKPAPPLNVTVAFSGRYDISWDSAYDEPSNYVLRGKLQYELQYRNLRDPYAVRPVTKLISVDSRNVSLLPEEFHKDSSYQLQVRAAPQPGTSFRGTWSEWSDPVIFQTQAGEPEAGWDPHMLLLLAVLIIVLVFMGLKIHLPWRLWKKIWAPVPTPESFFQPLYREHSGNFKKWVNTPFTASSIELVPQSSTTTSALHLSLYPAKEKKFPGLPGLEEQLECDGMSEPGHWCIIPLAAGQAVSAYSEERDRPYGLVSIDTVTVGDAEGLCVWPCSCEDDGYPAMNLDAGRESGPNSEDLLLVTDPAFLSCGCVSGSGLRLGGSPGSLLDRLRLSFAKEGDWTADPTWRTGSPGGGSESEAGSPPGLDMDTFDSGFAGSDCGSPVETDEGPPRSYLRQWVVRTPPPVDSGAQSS
# EXPERIMENT_NOTES: cell-based or functional assay
OBSERVABLE: Murine IL-21R-BaF3 Proliferation IC50 (nM)
Your answer is read as nM, so omit the unit and give the number.

See these solved cases before continuing.
BINDER	Murine IL-21R-BaF3 Proliferation IC50 (nM)
AbF (antibody, human IgG1, V domains shown, Full-length human IgG1 / human lambda, transient, conditioned medium; Framework limits derived; also called VHP/VL17) VH: QVQLQESGPGLVKPSETLSLTCAVSGYSISSGYYWGWIRQPPGKGLEWIGSISHTGNTYYNPPLKSRVTISVDTSKNQFSLKLSSVTAADTAVYYCARGGGISRPEYWGQGTLVTVSS VL: SSELTQDPAVSVALGQTVRITCQGDSLRTYYASWYQQKPGQAPVLVIYGKHKRPSGIPDRFSGSSSGNTASLTITGAQAEDEADYYCSTRSRKGNPHVLFGGGTQLTVL	0.304
AbT (antibody, human IgG1, V domains shown, Human IgG1 triple-mutant (L234A, L235A, G237A); Framework limits derived; also called VHP/VL9; VHPTM/VL9) VH: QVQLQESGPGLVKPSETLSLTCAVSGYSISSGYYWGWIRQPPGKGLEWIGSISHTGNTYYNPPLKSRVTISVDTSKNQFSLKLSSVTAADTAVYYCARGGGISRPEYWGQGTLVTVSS VL: SSELTQDPAVSVALGQTVRITCQGDSLRTYYASWYQQKPGQAPVLVIYGKHKRPSGIPDRFSGSSSGNTASLTITGAQAEDEADYYCVARSNKGNPHVLFGGGTQLTVL	0.093

Turning to the following binder.
Data request: Name the recorded Murine IL-21R-BaF3 Proliferation IC50 for AbJ (antibody, human IgG1, V domains shown, Full-length human IgG1 / human lambda, transient, conditioned medium; Framework limits derived; also called VH3/VLP) VH: QVQLQESGPGLVKPSETLSLTCAVSGYSISSGYYWGWIRQPPGKGLEWIGSISHTGNTYYNPPLKSRVTISVDTSKNQFSLKLSSVTAADTAVYYCARFMGFGRPEYWGQGTLVTVSS VL: SSELTQDPAVSVALGQTVRITCQGDSLRTYYASWYQQKPGQAPVLVIYGKHKRPSGIPDRFSGSSSGNTASLTITGAQAEDEADYYCNSRDSSGNPHVLFGGGTQLTVL .
Data returned: 0.4
